Test system: Human immunodeficiency virus 1
test_description: Antiviral activity against Human immunodeficiency virus 1 isolate M2 expressing protease L10I, I13V, M46I, I50V, L63P, L76V mutant infected in human MT4 cells
Assay type: functional, organism-based
assay_context: Human immunodeficiency virus 1, isolate M2, MT4
readout_name: EC50 (nM)
Response body: numeric value in nM, unit text excluded.

Prompt: Output EC50 of `CNc1nc2ccc(S(=O)(=O)N(CC(C)C)C[C@@H](O)[C@H](Cc3ccccc3)NC(=O)O[C@H]3CO[C@H]4OC[C@H](OCc5ccc(F)cc5F)[C@H]43)cc2o1`
Completion: 2.3

Prompt: Output EC50 of `CNc1nc2ccc(S(=O)(=O)N(CC(C)C)C[C@@H](O)[C@H](Cc3ccccc3)NC(=O)O[C@H]3CO[C@H]4OC[C@H](OCSC)[C@H]43)cc2o1`
Completion: 9.3

Prompt: Output EC50 of `CNc1nc2ccc(S(=O)(=O)N(CC(C)C)C[C@@H](O)[C@H](Cc3ccccc3)NC(=O)O[C@H]3CO[C@H]4OC[C@H](OCOC)[C@H]43)cc2o1`
Completion: 11.2
